Just for reference, patent US6503935B1 is where these values come from.

Tgt: α1A (rabbit urethra) (Oryctolagus cuniculus)
Construct: tested for α1A functional activity using rabbit urethra; from tissue; host or cells: rabbit urethra
Sequence (O02824 whole entry): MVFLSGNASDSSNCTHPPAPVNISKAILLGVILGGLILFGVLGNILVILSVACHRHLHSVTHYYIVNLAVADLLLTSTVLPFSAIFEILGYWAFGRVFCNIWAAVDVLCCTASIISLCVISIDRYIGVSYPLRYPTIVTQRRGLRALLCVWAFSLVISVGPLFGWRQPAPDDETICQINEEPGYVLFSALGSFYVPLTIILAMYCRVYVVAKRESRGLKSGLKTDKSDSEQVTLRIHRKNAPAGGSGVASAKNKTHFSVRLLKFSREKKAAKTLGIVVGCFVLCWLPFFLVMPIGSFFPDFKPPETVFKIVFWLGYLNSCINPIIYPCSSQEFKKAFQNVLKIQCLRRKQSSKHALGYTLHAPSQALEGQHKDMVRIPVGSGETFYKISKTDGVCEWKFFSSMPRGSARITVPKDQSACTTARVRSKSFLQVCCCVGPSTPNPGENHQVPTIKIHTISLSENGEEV
Assay protocol: Agonist contraction of smooth muscle tissue, rabbit urethra
Type: cell-based
Cond: rabbit urethra; read-out: Agonist Tissue Response (pD2) α1A (rab ureth) (converted)
Where a name gives a salt, the structure may show the parent alone.
Consider the following molecules and their measured EC50 readings.

>  <Molecule>
Cc1ccc(NS(C)(=O)=O)c2c1C(c1c[nH]cn1)CCC2 (centres unmarked) [Example 23, maleate]

>  <Recorded result>
39.8 µM

$$$$
>  <Molecule>
CCS(=O)(=O)Nc1cccc2c1CCCC2c1c[nH]cn1.O=C(O)/C=C\C(=O)O (centres unmarked) [Example 12, maleate]

>  <Recorded result>
0.631 µM

$$$$
>  <Molecule>
O=C(O)/C=C\C(=O)O.O=S(=O)(CC(F)(F)F)Nc1cccc2c1CCCC2c1c[nH]cn1 (centres unmarked) [Example 20, maleate]

>  <Recorded result>
2.82 µM

$$$$
>  <Molecule>
O=S(=O)(Nc1cccc2c1CCCC2c1cnc[nH]1)c1cccc2cccnc12 (centres unmarked)

>  <Recorded result>
17.8 µM

$$$$
>  <Molecule>
CCS(=O)(=O)Nc1cccc(C(=C2CCCCC2)c2c[nH]cn2)c1

>  <Recorded result>
16.2 µM

$$$$
>  <Molecule>
CS(=O)(=O)Nc1ccc(Cl)c2c1CCCC2c1c[nH]cn1 (centres unmarked) [Example 43, maleate]

>  <Recorded result>
44.7 µM

$$$$
>  <Molecule>
CCS(=O)(=O)Nc1ccc(Cl)c2c1CCCC2c1c[nH]cn1 (centres unmarked) [Example 42, maleate]

>  <Recorded result>
> 1000 µM

$$$$

Please look at the following molecule next.
Prompt: Given the entry CC(c1cccc(NS(C)(=O)=O)c1)c1c[nH]cn1.O=C(O)/C=C\C(=O)O (centres unmarked) [Example 31, maleate] , what EC50 was observed with α1A (rabbit urethra) (Oryctolagus cuniculus)?
Response: 4.17 µM

----------
Tgt: α1A (rat submaxillary gland) (Rattus norvegicus, UniProt P43140)
Construct: α1A (rat submaxillary gland); from tissue; host or cells: rat submaxillary gland
Assay protocol: Radioligand binding with [3H]-prazosin, α1A
Cond: rat submaxillary gland, [3H]-prazosin
Where a name gives a salt, the structure may show the parent alone.
Measured parameter: log10 of Ki (log10 of the value in nM)
Friendly reminder: values = log10 of Ki, unit nM.

>  <Compound>
CS(=O)(=O)Nc1ccc(O)c2c1CCCC2c1c[nH]cn1 (stereo not shown) [Example 24, maleate]

>  <log10 of Ki>
2.85

$$$$

Prompt: Given the entry Cn1cnc(S(=O)(=O)Nc2cccc3c2CCCC3c2cnc[nH]2)c1 (stereo not shown) , what log10 of Ki was observed with α1A (rat submaxillary gland) (Rattus norvegicus, UniProt P43140)?
Response: 2.56

Prompt: Given the entry Cc1ccc(NS(C)(=O)=O)c2c1C(c1c[nH]cn1)CCC2 (stereo not shown) [Example 23, maleate] , what log10 of Ki was observed with α1A (rat submaxillary gland) (Rattus norvegicus, UniProt P43140)?
Response: 2.59

Prompt: Given the entry `CCS(=O)(=O)Nc1cccc(C(=C2CCCCC2)c2c[nH]cn2)c1` , what log10 of Ki was observed with α1A (rat submaxillary gland) (Rattus norvegicus, UniProt P43140)?
Response: 2.36

Prompt: Given the entry Cc1ccc(S(=O)(=O)Nc2cccc3c2CCCC3c2cnc[nH]2)cc1 (stereo not shown) , what log10 of Ki was observed with α1A (rat submaxillary gland) (Rattus norvegicus, UniProt P43140)?
Response: 3.72

Prompt: Given the entry CC(c1cccc(NS(C)(=O)=O)c1)c1c[nH]cn1.O=C(O)/C=C\C(=O)O (stereo not shown) [Example 31, maleate] , what log10 of Ki was observed with α1A (rat submaxillary gland) (Rattus norvegicus, UniProt P43140)?
Response: 2.92

Prompt: Given the entry CS(=O)(=O)Nc1cccc(Cc2c[nH]cn2)c1.O=C(O)/C=C\C(=O)O [Example 21, maleate] , what log10 of Ki was observed with α1A (rat submaxillary gland) (Rattus norvegicus, UniProt P43140)?
Response: 2.56

Prompt: Given the entry O=C(Nc1cccc2c1CCCC2c1c[nH]cn1)C(F)(F)F (stereo not shown) , what log10 of Ki was observed with α1A (rat submaxillary gland) (Rattus norvegicus, UniProt P43140)?
Response: 2.22

Prompt: Given the entry O=S(=O)(Nc1cccc2c1CCCC2c1cnc[nH]1)c1ccc(Cl)s1 (stereo not shown) , what log10 of Ki was observed with α1A (rat submaxillary gland) (Rattus norvegicus, UniProt P43140)?
Response: 3.18

Prompt: Given the entry O=S(=O)(CC(F)(F)F)Nc1cccc2c1CCCC2c1c[nH]cn1 (single isomer, unassigned; (-)) [Example 35] , what log10 of Ki was observed with α1A (rat submaxillary gland) (Rattus norvegicus, UniProt P43140)?
Response: 3.34

----------
Consider the following compounds and their measured pKi readings.
Tgt: α1d (rat receptor expressed in mouse fibroblasts) (Rattus norvegicus, UniProt P23944)
Construct: expressed in transfected cells; host or cells: mouse fibroblasts
Sequence (P23944 whole entry): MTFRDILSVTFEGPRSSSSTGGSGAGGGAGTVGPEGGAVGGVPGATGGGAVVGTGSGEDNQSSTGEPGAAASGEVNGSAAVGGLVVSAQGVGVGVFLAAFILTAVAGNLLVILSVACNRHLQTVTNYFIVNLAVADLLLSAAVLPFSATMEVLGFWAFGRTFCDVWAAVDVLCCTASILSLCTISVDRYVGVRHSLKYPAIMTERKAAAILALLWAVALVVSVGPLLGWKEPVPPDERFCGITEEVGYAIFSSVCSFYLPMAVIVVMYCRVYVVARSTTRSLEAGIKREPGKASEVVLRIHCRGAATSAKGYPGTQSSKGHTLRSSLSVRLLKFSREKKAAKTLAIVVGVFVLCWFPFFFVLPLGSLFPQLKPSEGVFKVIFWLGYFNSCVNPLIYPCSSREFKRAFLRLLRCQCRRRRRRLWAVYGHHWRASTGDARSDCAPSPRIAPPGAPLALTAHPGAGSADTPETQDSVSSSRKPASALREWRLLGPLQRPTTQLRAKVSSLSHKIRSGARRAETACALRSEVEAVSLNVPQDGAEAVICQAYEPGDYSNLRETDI
Assay protocol: Radioligand binding with [3H]-prazosin, α1d
Cond: Radioligand Binding Ki α1d (Rat), rat receptor expressed in mouse fibroblasts, [3H]-prazosin
Structures can show the parent of a compound that is named as a salt.
// scale note: pKi = -log10(conc_M); give the bare number

Prompt: Given the entry CS(=O)(=O)Nc1ccc(F)c(Cc2c[nH]cn2)c1 [Example 41, maleate] , report its measured pKi.
Response: 6.46

----------
Tgt: α1b (hamster receptor expressed in mouse fibroblasts) (Mesocricetus auratus, UniProt P18841)
Construct: expressed in transfected cells; host or cells: mouse fibroblasts
Sequence (P18841 whole entry): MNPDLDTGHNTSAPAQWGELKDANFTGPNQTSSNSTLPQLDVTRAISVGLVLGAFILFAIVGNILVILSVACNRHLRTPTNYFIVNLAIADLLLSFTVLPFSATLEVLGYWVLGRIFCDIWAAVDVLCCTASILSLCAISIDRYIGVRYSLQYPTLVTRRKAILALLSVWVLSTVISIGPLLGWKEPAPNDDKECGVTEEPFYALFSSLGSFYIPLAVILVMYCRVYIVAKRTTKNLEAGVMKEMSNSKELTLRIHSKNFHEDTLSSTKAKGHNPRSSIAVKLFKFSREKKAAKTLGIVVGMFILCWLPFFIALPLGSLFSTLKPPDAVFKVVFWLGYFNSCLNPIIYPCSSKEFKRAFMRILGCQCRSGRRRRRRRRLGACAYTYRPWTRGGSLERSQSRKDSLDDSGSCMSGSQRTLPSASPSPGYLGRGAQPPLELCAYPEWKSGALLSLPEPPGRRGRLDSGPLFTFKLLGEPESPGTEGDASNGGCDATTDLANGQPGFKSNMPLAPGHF
Assay protocol: Radioligand binding with [3H]-prazosin, α1b
Where a name gives a salt, the structure may show the parent alone.
Consider the following compounds and their measured Ki readings.
Field: numeric (nM). Do not append units.

>  <Compound>
CCS(=O)(=O)Nc1cccc(C(C)c2c[nH]cn2)c1 (stereo not shown) [Example 37, maleate]

>  <Ki [nM]>
2280

$$$$
>  <Compound>
C=C(c1cccc(NS(=O)(=O)CC)c1)c1c[nH]cn1 [Example 45]

>  <Ki [nM]>
1730

$$$$

Prompt: Given the entry CS(=O)(=O)Nc1cccc(Cc2c[nH]cn2)c1.O=C(O)/C=C\C(=O)O [Example 21, maleate] , report its measured Ki.
Response: 1270

Prompt: Given the entry CCS(=O)(=O)Nc1cccc(C(=C2CCCCC2)c2c[nH]cn2)c1 [Example 56] , report its measured Ki.
Response: 15.1

Prompt: Given the entry CCS(=O)(=O)Nc1cccc(Cc2c[nH]cn2)c1C.O=C(O)/C=C\C(=O)O [Example 29, maleate] , report its measured Ki.
Response: 3880

Prompt: Given the entry CS(=O)(=O)Nc1ccc(F)c(Cc2c[nH]cn2)c1 [Example 41, maleate] , report its measured Ki.
Response: 1630

Prompt: Given the entry CS(=O)(=O)Nc1cc(Cc2c[nH]cn2)ccc1O [Example 11, hydrochloride] , report its measured Ki.
Response: 1400

----------
Counter-ions that a name gives are not always drawn.
Consider the following compounds and their measured melting point readings.

>  <Compound>
CS(=O)(=O)Nc1cccc(Cc2c[nH]cn2)c1.O=C(O)/C=C\C(=O)O

>  <melting point>
142 to 144 °C

$$$$
>  <Compound>
CCn1cnc(C2CCCc3c2ccc(O)c3NS(C)(=O)=O)c1.Cl (stereo not drawn)

>  <melting point>
230 to 234 °C (dec.)

$$$$
>  <Compound>
O=C(Nc1cccc2c1CCCC2c1c[nH]cn1)C(F)(F)F (stereo not drawn) (as salt: maleate)

>  <melting point>
181 to 182 °C

$$$$
>  <Compound>
CN(c1cccc2c1CCCC2c1c[nH]cn1)S(C)(=O)=O (stereo not drawn) (as salt: maleate)

>  <melting point>
146 to 147 °C

$$$$
>  <Compound>
C=C(c1cccc(NS(=O)(=O)CC)c1)c1c[nH]cn1 (as salt: maleate)

>  <melting point>
151 to 155 °C

$$$$

Prompt: Given the entry COc1ccc(NS(C)(=O)=O)c2c1C(c1c[nH]cn1)CCC2 (stereo not drawn) (as salt: maleate) , report its measured melting point.
Response: 181 to 184 °C

----------
Tgt: α1A (rat epididymal vas deferens) (Rattus norvegicus)
Sequence (P43140 1-466): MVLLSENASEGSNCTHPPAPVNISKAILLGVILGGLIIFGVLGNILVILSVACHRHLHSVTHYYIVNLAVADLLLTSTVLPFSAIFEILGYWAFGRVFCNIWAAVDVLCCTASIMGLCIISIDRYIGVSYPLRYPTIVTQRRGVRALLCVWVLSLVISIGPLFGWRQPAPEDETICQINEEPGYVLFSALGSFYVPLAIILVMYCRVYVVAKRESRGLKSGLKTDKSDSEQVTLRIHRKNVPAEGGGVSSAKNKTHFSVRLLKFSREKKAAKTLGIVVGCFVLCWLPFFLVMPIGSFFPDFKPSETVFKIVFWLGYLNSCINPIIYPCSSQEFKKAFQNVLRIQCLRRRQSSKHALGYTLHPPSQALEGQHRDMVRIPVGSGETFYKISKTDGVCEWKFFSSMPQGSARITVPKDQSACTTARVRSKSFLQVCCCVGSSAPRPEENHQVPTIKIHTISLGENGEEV
Assay protocol: cell-based
Cond: rat epididymal vas deferens (values marked *); read-out: Agonist Tissue Response (pD2) α1A, test performed using rat epididymal vas deferens (converted)
Structures can show the parent of a compound that is named as a salt.
Measured parameter: EC50 (µM)
Field: numeric (µM). Do not append units.

>  <Compound>
CS(=O)(=O)Nc1c(O)ccc2c1CCCC2c1c[nH]cn1 (centres unmarked) [Example 2, hydrochloride]

>  <Display unit>
µM

>  <Recorded result>
0.017

$$$$

Prompt: Given the entry Cc1nc(C2CCCc3c2ccc(O)c3NS(C)(=O)=O)c[nH]1 (centres unmarked) [Example 3, hydrochloride] , what EC50 was observed with α1A (rat epididymal vas deferens) (Rattus norvegicus)?
Response: 1.95

Prompt: Given the entry Cn1cncc1C1CCCc2c1ccc(O)c2NS(C)(=O)=O (centres unmarked) [Example 4, hydrochloride] , what EC50 was observed with α1A (rat epididymal vas deferens) (Rattus norvegicus)?
Response: 309
